Each entry below lists one item and its recorded Inh (% of Ctl) 0.1 μM value.
targetOrSystem: rat PGT (Rattus norvegicus (Rat))
testSummary: [3H]PGE2 uptake inhibition in MDCK cells stably transfected with rat PGT (percent inhibition and IC50)
Assay type: cell-based
testSettings: 0.1 μM compound; inhibition of [3H]PGE2 uptake

Some solved cases for reference:
[in] Name the recorded Inh (% of Ctl) 0.1 μM for O=C(NCCOCCOCCNc1nc(Nc2ccc(C(=O)NCc3ccc(F)cc3)cc2)nc(Nc2ccc3[nH]cnc3c2)n1)c1ccccc1 [compound 142] .
[out] 8.4 % of Ctl

[in] Entry CCCCCCNc1nc(Nc2ccc(O)cc2)nc(Nc2ccc(C(=O)NCc3ccccc3)cc2)n1 [compound 120] please
[out] 11.2 % of Ctl

[in] Record: O=C(NCCOCCOCCNc1nc(Nc2ccc(O)cc2)nc(Nc2ccc(C(=O)NCc3cccc(C(F)(F)F)c3)cc2)n1)c1ccccc1 [compound 101]
[out] 47.4 % of Ctl

[in] And then O=C(NCCOCCNc1nc(Nc2ccc(O)cc2)nc(Nc2ccc(C(=O)NCc3ccc(F)cc3)cc2)n1)c1ccccc1 [compound 147] , what is it?
[out] 44.5 % of Ctl

[in] Also CC(=O)NCCOCCNc1nc(Nc2ccc(O)cc2)nc(Nc2ccc(C(=O)NCc3ccccc3)cc2)n1 [compound 140] ?
[out] 11.5 % of Ctl

[in] One more molecule: O=C(NCCOCCOCCNc1nc(Nc2ccc(C(=O)NCc3ccc(F)cc3)cc2)nc(Nc2ccc(O)c(F)c2)n1)c1ccccc1 [compound 143]
[out] 33.7 % of Ctl

[in] What about COC(=O)c1cc(Nc2nc(NCCOCCOCCNC(=O)c3ccccc3)nc(Nc3ccc(C(=O)NCc4ccc(F)cc4)cc3)n2)ccc1O [compound 144] ?
[out] 3.4 % of Ctl

[in] Could you do the same for O=C(NCc1ccc(F)cc1)c1ccc(Nc2nc(Nc3ccc(O)cc3)nc(Nc3ccc(C(=O)NCc4ccc(F)cc4)cc3)n2)cc1 [compound 148] , please?
[out] 8.4 % of Ctl

[in] Continue with N[C@H](Cc1ccccc1)C(=O)NCCOCCNc1nc(Nc2ccc(O)cc2)nc(Nc2ccc(C(=O)NCc3ccccc3)cc2)n1 [compound 133]
[out] 4.3 % of Ctl

[in] What do you have for O=C(O)c1ccc(CNc2nc(NCCOCCOCCNC(=O)c3ccccc3)nc(Nc3ccc(C(=O)NCc4ccccc4)cc3)n2)cc1 [compound 121] ?
[out] 1.0 % of Ctl

Next:
[in] Bench note: what Inh (% of Ctl) 0.1 μM did O=C(NCCOCCOCCNc1nc(Nc2ccc(O)cc2)nc(Nc2ccc(C(=O)NCc3ccc(Cl)c(Cl)c3)cc2)n1)c1ccccc1 [compound 104] show?
[out] 46.6 % of Ctl

[in] Let us now turn to O=C(NCCOCCOCCNc1nc(Nc2ccc(O)cc2)nc(Nc2ccc(C(=O)NCc3ccc(Cl)cc3Cl)cc2)n1)c1ccccc1 [compound 100]
[out] 41.1 % of Ctl

[in] Do the same for O=C(NCCOCCOCCNc1nc(Nc2ccc(O)cc2)nc(Nc2ccc(C(=O)NCc3cc(F)ccc3F)cc2)n1)c1ccccc1 [compound 127] please
[out] 17.0 % of Ctl

----------
targetOrSystem: rat PGT (Rattus norvegicus (Rat))
testSummary: [3H]PGE2 uptake inhibition in MDCK cells stably transfected with rat PGT (percent inhibition and IC50)
Format: cell-based
testSettings: 5 μM compound; inhibition of [3H]PGE2 uptake
measuredEndpoint: Inh (% of Ctl) 5 μM

[in] Need Inh (% of Ctl) 5 μM, item O=C(NCCOCCOCCNc1nc(Nc2ccc(O)cc2)nc(Nc2ccc(C(=O)N[C@@H](C(=O)O)c3ccccc3)cc2)n1)c1ccccc1
[out] 54.9 % of Ctl

[in] Now give it for COC(=O)[C@H](NC(=O)c1ccc(Nc2nc(NCCOCCOCCNC(=O)c3ccccc3)nc(Nc3ccc(O)cc3)n2)cc1)c1ccccc1 too.
[out] 75.3 % of Ctl

[in] Do the same for COCCOCCOCCNc1nc(NCCOCCOCCNC(=O)c2ccccc2)nc(Nc2ccc(O)cc2)n1 please
[out] 29.9 % of Ctl

----------
targetOrSystem: UniProtKB Q00910
testSummary: [3H]PGE2 uptake inhibition in MDCK cells stably transfected with rat PGT (percent inhibition and IC50)
Type: cell-based
testSettings: 0.5 μM compound; inhibition of [3H]PGE2 uptake
// Inh (% of Ctl) 0.5 μM lookup, one value per entry

Examples with their reported Inh (% of Ctl) 0.5 μM follow.
[in] // lookup Inh (% of Ctl) 0.5 μM | system=UniProtKB Q00910 | key= O=C(NCCOCCOCCNc1nc(Nc2ccc(O)cc2)nc(Nc2ccc(C(=O)NCc3cccc(-c4ccccc4)c3)cc2)n1)c1ccccc1
[out] 23.4 % of Ctl

[in] Do the same for CC(=O)NCCOCCNc1nc(Nc2ccc(O)cc2)nc(Nc2ccc(C(=O)NCc3ccccc3)cc2)n1 please
[out] 4.5 % of Ctl

Would you kindly look at the next entry?
[in] Field: Inh (% of Ctl) 0.5 μM (UniProtKB Q00910). Entry: [N-]=[N+]=NCCOCCOCCNC(=O)c1ccc(Nc2nc(NCCOCCOCCNC(=O)c3ccccc3)nc(Nc3ccc(O)cc3)n2)cc1 [T26A, reference compound]
[out] 72.65 % of Ctl

----------
targetOrSystem: rat PGT (Rattus norvegicus (Rat), UniProt Q00910)
testSummary: [3H]PGE2 uptake inhibition in MDCK cells stably transfected with rat PGT (percent inhibition and IC50)
Assay type: cell-based
testSettings: 0.5 μM compound; inhibition of [3H]PGE2 uptake
measuredEndpoint: Inh (% of Ctl) 0.5 μM

[in] So what does the record say about Inh (% of Ctl) 0.5 μM for NC(=O)c1ccc(Nc2nc(NCCOCCOCCNC(=O)c3ccccc3)nc(Nc3ccc(O)cc3)n2)cc1 ?
[out] 9.6 % of Ctl

[in] Now give it for O=C(NCCOCCOCCNc1nc(Nc2ccccc2)nc(Nc2ccc(OCc3ccccc3)cc2)n1)c1ccccc1 too.
[out] 1.6 % of Ctl

[in] Now this one: COC(=O)c1cc(Nc2nc(NCCOCCOCCNC(=O)c3ccccc3)nc(Nc3ccc(C(=O)NCc4ccc(F)cc4)cc3)n2)ccc1O
[out] 5.8 % of Ctl

[in] # repeat for O=C(NCCOCCOCCNc1nc(Nc2ccc(O)cc2)nc(Nc2ccc(C(=O)NCc3ccccn3)cc2)n1)c1ccccc1
[out] 21.2 % of Ctl

[in] Likewise for CN(C)c1nc(NCCOCCOCCNC(=O)c2ccccc2)nc(Nc2ccc(OCc3ccccc3)cc2)n1 ?
[out] 6.6 % of Ctl

[in] Now consider O=C(NCCOCCOCCNc1nc(Nc2ccc(O)cc2)nc(Nc2ccc(C(=O)NCC3CCCCC3)cc2)n1)c1ccccc1 and answer again.
[out] 76.8 % of Ctl

[in] For COc1cccc(CNC(=O)c2ccc(Nc3nc(NCCOCCOCCNC(=O)c4ccccc4)nc(Nc4ccc(O)cc4)n3)cc2)c1 then?
[out] 67.6 % of Ctl

[in] Moving on to the next molecule: O=C(O)C(F)(F)F.[N-]=[N+]=NCCOCCOCCNC(=O)c1ccc(Nc2nc(NCCOCCOCCNC(=O)c3ccccc3)nc(Nc3ccc(O)cc3)n2)cc1
[out] 52.3 % of Ctl

[in] Now the molecule O=C(NCCOCCOCCNc1nc(Nc2ccc(O)cc2)nc(Nc2cccc(C(=O)NCc3ccccc3)c2)n1)c1ccccc1
[out] 15.5 % of Ctl

[in] Then this molecule: COC(=O)c1ccc(CNc2nc(NCCOCCOCCNC(=O)c3ccccc3)nc(Nc3ccc(C(=O)NCc4ccccc4)cc3)n2)cc1
[out] 36.7 % of Ctl

[in] Now this one: CCCCCCCC(=O)c1ccc(Nc2nc(NCCOCCOCCNC(=O)c3ccccc3)nc(Nc3ccc(O)cc3)n2)cc1
[out] 13.5 % of Ctl

[in] Also check O=C(NCCOCCOCCNc1nc(Nc2ccc(O)cc2)nc(Nc2ccc3c(c2)C(=O)NC3=O)n1)c1ccccc1
[out] 1.8 % of Ctl

----------
targetOrSystem: rat PGT (Rattus norvegicus (Rat))
testSummary: [3H]PGE2 uptake inhibition in MDCK cells stably transfected with rat PGT (percent inhibition and IC50)
testSettings: [3H]PGE2 uptake, MDCK cells stably transfected with rat PGT
measuredEndpoint: IC50 (nM)

Completed entries (count: 5):
[in] For rat PGT (Rattus norvegicus (Rat)), provide IC50 of COC(=O)CCCCCCNC(=O)c1ccc(Nc2nc(NCCOCCOCCNC(=O)c3ccccc3)nc(Nc3ccc(O)cc3)n2)cc1 [compound 43] please.
[out] 1300

[in] How about this compound: O=C(NCCOCCOCCNc1nc(Nc2ccc(O)cc2)nc(Nc2ccc(C(=O)NCc3ccccn3)cc2)n1)c1ccccc1 [compound 70]
[out] 1050

[in] What would you report for COc1ccc(C(=O)NCCOCCNc2nc(Nc3ccc(O)cc3)nc(Nc3ccc(C(=O)NCc4ccccc4)cc3)n2)cc1 [compound 137] ?
[out] 36.7

[in] Would you kindly repeat that for O=C(NCCOCCOCCNc1nc(Nc2ccc(O)cc2)nc(Nc2ccc(C(=O)NCc3ccc(F)cc3)cc2)n1)c1ccccc1 [compound 99] ?
[out] 23.7

[in] Query O=C(NCCOCCOCCNc1nc(Nc2ccc(O)cc2)nc(Nc2ccc(C(=O)NCc3cccc(F)c3)cc2)n1)c1ccccc1 [compound 105] next
[out] 47.5

I. O=C(NCCOCCOCCNc1nc(Nc2ccc(C(=O)NCc3ccccc3)cc2)nc(Nc2ccc3[nH]ncc3c2)n1)c1ccccc1 [compound 64]
II. COC(=O)c1ccc(Nc2nc(NCCOCCOCCNC(=O)c3ccccc3)nc(Nc3ccc(O)cc3)n2)cc1 [compound 17]
[in] Between the entries labelled I and II , which has a larger IC50 value on record? Please identify the chosen entry by its label.
[out] II
(II: 6570 nM, I: 115 nM)
